measurement_target: DLG2_3, Q15700
assay_protocol: holdup assay
Set-up: key: below the threshold = too weak to quantify, mostly under pKd 3.1 to 4
condition_parameters: plain residues with an end cap or a label only (N-terminal biotin on a linker: ado-ado)
experimental_readout: pKd
# answer = number (no unit)

# example entries with known answers
INSERT INTO results (binder, quantitative_readout) VALUES
  ('SGSLKLMTTV [DACT1, Q9NYF0]', 4.4),
  ('CLREWCDAFL [BANF1, O75531]', 3.61),
  ('SKENVQETQI [LRRC4B, Q9NT99]', 4.17),
  ('RRISSLESEV [GRIN2C, Q14957]', 4.44),
  ('NLSIEKETKL [ASNSD1, Q9NWL6]', 3.77);

Request: Need pKd of PKRSFIESNV [TANC1, Q9C0D5] , thanks.
Result: 4.28
